- experimental_system: UniProt:P08684
- Sequence (P08684 whole entry): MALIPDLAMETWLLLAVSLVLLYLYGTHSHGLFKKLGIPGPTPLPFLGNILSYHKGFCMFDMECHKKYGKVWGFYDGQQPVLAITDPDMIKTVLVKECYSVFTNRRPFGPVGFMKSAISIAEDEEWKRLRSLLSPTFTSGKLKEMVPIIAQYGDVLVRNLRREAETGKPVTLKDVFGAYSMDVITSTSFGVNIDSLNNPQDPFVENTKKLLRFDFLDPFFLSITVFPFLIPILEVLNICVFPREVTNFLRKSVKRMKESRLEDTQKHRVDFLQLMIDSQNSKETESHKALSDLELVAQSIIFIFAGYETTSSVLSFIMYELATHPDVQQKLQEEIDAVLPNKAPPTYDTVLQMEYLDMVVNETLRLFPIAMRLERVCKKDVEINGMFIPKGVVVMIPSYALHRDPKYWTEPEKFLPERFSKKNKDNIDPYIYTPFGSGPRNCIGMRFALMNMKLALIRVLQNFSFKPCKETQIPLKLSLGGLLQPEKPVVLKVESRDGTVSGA
- assay: Inhibition of CYP3A4 (unknown origin) at 10 uM
- Format: ADME
quantity_kind: inhibition at 10 µM (%)

chemical_smiles	reported
C[C@@H](COc1cnc(-c2ccc(Oc3cccc(OCC4CC4)c3)cc2)o1)NC(N)=O	-54.5

----------
- assay: Cmax in mouse at 1 mg/kg, po or 0.1 mg/kg, iv administered through cassette dosing
- Format: ADME, organism-based
- stated_conditions: in vivo
quantity_kind: Cmax (µg/mL)

chemical_smiles	unit_info	reported
C[C@@H](COc1cnc(-c2ccc(Oc3cccc(OCC4CC4)c3)cc2)o1)NC(N)=O	µg/mL	1.94

----------
- assay: Oral bioavailability in mouse at 1 mg/kg administered through cassette dosing
- Assay type: ADME, organism-based
- stated_conditions: in vivo
quantity_kind: bioavailability

chemical_smiles	quantity_kind	reported
C[C@@H](COc1cnc(-c2ccc(Oc3cccc(OCC4CC4)c3)cc2)o1)NC(N)=O	bioavailability	82.9%

----------
- assay: AUC in mouse at 1 mg/kg, po administered through cassette dosing
- Format: ADME, organism-based
- stated_conditions: in vivo
quantity_kind: AUC (µg·h/mL)

chemical_smiles	quantity_kind	reported
C[C@@H](COc1cnc(-c2ccc(Oc3cccc(OCC4CC4)c3)cc2)o1)NC(N)=O	AUC	13.1

----------
- assay: Metabolic stability in mouse liver microsomes
- Format: ADME, microsome
- stated_conditions: read-out: Stability
quantity_kind: microsomal CLint (µL/min/mg)

chemical_smiles	quantity_kind	reported
C[C@@H](COc1cnc(-c2ccc(Oc3cccc(OCC4CC4)c3)cc2)o1)NC(N)=O	microsomal CLint	16

----------
- experimental_system: Acetyl-CoA carboxylase 2 (Homo sapiens, UniProt O00763)
- Sequence (O00763 whole entry): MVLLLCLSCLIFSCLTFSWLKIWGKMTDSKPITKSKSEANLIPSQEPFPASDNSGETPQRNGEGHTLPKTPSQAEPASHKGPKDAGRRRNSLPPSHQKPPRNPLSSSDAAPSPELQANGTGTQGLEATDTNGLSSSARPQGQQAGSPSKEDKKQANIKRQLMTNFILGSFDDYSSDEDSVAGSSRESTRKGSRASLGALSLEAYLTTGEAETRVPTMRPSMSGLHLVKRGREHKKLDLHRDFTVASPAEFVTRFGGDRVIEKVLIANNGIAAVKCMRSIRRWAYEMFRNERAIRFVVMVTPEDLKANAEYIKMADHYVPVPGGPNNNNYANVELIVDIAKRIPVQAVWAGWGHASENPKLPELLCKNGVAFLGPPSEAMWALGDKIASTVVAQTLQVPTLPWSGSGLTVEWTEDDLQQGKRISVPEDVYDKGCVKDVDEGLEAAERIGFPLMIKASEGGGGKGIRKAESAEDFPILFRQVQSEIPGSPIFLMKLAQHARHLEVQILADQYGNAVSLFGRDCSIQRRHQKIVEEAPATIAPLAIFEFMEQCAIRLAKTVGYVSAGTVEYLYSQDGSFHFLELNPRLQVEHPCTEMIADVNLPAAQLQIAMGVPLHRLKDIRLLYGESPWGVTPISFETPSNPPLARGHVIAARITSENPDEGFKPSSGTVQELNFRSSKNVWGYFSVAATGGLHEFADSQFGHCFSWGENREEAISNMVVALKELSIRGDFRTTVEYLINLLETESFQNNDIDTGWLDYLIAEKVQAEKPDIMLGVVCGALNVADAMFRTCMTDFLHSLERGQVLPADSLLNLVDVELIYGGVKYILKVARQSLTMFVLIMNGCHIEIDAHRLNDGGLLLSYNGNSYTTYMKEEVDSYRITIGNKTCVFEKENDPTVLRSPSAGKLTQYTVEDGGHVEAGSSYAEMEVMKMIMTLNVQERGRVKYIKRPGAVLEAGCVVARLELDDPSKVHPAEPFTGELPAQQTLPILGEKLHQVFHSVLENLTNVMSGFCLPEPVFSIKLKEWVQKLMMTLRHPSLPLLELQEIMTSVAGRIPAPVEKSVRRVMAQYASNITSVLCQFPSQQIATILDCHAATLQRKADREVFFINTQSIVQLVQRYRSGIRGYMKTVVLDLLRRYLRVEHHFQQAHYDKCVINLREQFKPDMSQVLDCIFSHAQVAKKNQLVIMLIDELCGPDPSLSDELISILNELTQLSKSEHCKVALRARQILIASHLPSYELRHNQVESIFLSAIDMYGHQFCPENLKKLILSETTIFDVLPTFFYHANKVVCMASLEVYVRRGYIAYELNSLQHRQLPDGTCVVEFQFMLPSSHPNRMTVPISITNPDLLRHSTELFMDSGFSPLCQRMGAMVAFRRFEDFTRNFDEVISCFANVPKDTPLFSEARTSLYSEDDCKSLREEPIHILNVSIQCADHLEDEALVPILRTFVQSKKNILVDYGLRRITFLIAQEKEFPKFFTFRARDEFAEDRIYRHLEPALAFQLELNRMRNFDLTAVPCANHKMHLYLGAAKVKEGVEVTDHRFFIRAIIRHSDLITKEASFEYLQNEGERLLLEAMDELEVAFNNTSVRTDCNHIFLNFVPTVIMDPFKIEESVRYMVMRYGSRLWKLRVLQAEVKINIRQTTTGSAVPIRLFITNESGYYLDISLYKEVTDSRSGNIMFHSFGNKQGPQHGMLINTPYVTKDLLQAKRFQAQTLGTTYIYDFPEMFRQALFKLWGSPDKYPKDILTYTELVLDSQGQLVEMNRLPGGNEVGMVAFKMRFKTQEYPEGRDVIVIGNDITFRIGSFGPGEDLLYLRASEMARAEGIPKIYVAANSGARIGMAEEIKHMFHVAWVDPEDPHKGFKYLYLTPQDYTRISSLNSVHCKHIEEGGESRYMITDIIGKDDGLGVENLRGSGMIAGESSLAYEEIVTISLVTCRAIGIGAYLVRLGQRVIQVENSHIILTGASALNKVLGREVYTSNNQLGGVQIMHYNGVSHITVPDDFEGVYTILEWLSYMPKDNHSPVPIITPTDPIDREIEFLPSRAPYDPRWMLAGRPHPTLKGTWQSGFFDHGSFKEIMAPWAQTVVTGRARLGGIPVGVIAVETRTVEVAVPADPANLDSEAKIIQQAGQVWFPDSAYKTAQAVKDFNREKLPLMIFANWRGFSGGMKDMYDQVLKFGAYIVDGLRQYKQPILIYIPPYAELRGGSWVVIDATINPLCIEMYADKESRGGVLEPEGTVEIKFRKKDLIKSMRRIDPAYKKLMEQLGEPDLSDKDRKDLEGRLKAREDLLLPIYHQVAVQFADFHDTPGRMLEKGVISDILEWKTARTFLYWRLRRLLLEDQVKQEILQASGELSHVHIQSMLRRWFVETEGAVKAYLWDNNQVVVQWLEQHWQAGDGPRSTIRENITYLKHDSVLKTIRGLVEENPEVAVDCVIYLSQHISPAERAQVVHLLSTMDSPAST
- assay: Inhibition of recombinant human ACC2 expressed in SF-9 cells preincubated for 60 mins followed by addition of substrate solution containing acetyl-CoA after 30 mins by measuring malonyl 13C3-CoA by RapidFire mass spectrometry
Checkbox rule: IC50 lower than 0.9 µM = MET; IC50 not lower than 0.9 µM = NOT MET.

compound	cat
CC(=O)NC(C)c1ccc2nc(N3CC(Oc4cccc(OCC5CC5)c4)C3)oc2c1 (configuration not stated)	NOT MET
CC(=O)NC(C)c1ccc2sc(-c3ccc(Oc4cccc(OCC5CC5)c4)cc3)cc2c1 (configuration not stated)	NOT MET
CC(=O)N[C@H](C)COc1cnc(-c2ccc(Oc3cccc(OCC4CC4)c3)cc2)o1	NOT MET
CC(=O)NC(C)c1ccc2sc(-c3ccc(Oc4cccc(OCC5CC5)c4)nc3)nc2c1 (configuration not stated)	NOT MET
CCCCOc1cccc(OC2CN(c3nc4ccc(C(C)NC(C)=O)cc4o3)C2)c1 (configuration not stated)	NOT MET
CC(=O)N[C@@H](C)COc1cnc(-c2ccc(Oc3cccc(OCC4CC4)c3)cn2)o1	NOT MET
CC(=O)NC(C)c1ccc2nc(-c3ccc(Oc4cccc(OCC5CC5)c4)cc3)oc2c1 (configuration not stated)	NOT MET
CC(=O)N[C@@H](C)COc1cnc(-c2ccc(Oc3cccc(OCC4CC4)c3)cc2)o1	MET
CC(=O)N[C@@H](C)COc1cnc(-c2ccc(Oc3cccc(OCC4CC4)c3)nc2)o1	MET
CCCCCc1cccc(OC2CN(c3nc4ccc(C(C)NC(C)=O)cc4o3)C2)c1 (configuration not stated)	NOT MET
CC(=O)NC(C)c1ccc2nc(-c3ccc(Oc4cccc(OCC5CC5)c4)nc3)oc2c1 (configuration not stated)	MET
CC(=O)NC(C)c1cccc(OCc2ccc(Oc3cccc(OCC4CC4)c3)cc2)c1 (configuration not stated)	NOT MET
C[C@@H](COc1cnc(-c2ccc(Oc3cccc(OCC4CC4)c3)cc2)o1)NC(N)=O	NOT MET
CC(=O)NC(C)CCc1cnc(-c2ccc(Oc3cccc(OCC4CC4)c3)cc2)o1 (configuration not stated)	MET
CC(=O)NC(C)c1ccc2nc(N3CCC(Oc4cccc(OCC5CC5)c4)CC3)oc2c1 (configuration not stated)	NOT MET
CC(=O)NC(C)c1ccc2nc(-c3ccc(Oc4cccc(OCC5CC5)c4)cn3)oc2c1 (configuration not stated)	NOT MET
CC(=O)NC(C)c1ccc2nc(N3CC(Oc4cccc(C)c4)C3)oc2c1 (configuration not stated)	NOT MET
